- subject_of_test: full-length beta-Catenin (Uniprot ID P35222) (Homo sapiens, UniProt P35222)
- Construct: 10 nM full-length beta-Catenin (Uniprot ID P35222)
- Sequence (P35222 1-781): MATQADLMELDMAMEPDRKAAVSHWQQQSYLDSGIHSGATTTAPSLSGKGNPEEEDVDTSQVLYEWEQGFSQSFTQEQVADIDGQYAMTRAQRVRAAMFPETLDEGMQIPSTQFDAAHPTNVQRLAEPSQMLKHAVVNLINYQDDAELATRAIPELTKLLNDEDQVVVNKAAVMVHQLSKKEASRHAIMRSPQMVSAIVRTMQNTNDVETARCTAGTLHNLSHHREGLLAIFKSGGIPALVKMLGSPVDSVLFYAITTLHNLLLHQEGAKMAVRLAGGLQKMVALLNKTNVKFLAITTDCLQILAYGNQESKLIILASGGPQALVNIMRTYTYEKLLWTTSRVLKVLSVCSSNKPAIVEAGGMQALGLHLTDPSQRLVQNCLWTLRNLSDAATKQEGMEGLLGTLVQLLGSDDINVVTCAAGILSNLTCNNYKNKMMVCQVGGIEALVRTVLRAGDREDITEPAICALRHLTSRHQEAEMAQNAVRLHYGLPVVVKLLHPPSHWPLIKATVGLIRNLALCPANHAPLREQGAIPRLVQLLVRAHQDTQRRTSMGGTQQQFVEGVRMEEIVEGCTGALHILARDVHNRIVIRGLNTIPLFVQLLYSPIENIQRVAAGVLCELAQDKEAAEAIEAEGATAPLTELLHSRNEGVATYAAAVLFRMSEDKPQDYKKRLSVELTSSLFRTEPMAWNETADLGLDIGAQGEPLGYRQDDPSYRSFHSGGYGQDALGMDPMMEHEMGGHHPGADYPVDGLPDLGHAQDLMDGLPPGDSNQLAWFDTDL
- test_method_notes: Fluorescence polarization IC50 (beta-catenin / 5FAM-TCF4 10-53 competition)
- Type: binding
- details: read-out: FP EC50
Binarize IC50 at 90 nM; below is class 1, at or above is class 0.

- compound: "CC(=O)N1CCC[C@]12CC=CCCCC1(CCCC=CCCCCCC[C@@](C)(C(=O)N[C@@H](Cc3ccccc3)C(=O)N[C@@H](Cc3csc4ccccc34)C(=O)N[C@@H](Cc3c[nH]cn3)C(N)=O)NC(=O)[C@H](CC(N)=O)NC(=O)[C@H](Cc3ccccc3)NC(=O)[C@H](C)NC(=O)[C@H](C)NC(=O)[C@H](CC(=O)O)NC(=O)[C@H](CC(=O)O)NC1=O)NC(=O)[C@H](CCC(C)C)NC(=O)[C@H](CC(=O)O)NC2=O (stereo partly shown) [I-584]"
  cat: "class 1"
- compound: "CC(=O)N1CCC[C@]12CC=CCCCC1(CCCC=CCCCCCC[C@@](C)(C(=O)N[C@@H](Cc3ccccc3)C(=O)N[C@@H](Cc3csc4ccccc34)C(=O)N[C@@H](Cc3c[nH]cn3)C(N)=O)NC(=O)[C@H](CC(N)=O)NC(=O)[C@H](Cc3ccccc3)NC(=O)[C@H](C)NC(=O)[C@H](C)NC(=O)[C@H](CCC(=O)O)NC(=O)[C@H](CC(=O)O)NC1=O)NC(=O)[C@H](C)NC(=O)[C@H](CC(=O)O)NC2=O (stereo partly shown) [I-421]"
  cat: "class 0"
- compound: "CC[C@@H]1NC(=O)[C@H](CC(=O)O)NC(=O)[C@]2(CC=CCCCC3(CCCC=CCCCCCC[C@@](C)(C(=O)N[C@@H](Cc4ccccc4)C(=O)N[C@@H](Cc4csc5ccccc45)C(=O)N[C@@H](CCC(N)=O)C(N)=O)NC(=O)[C@H](CC(N)=O)NC(=O)[C@H](Cc4ccccc4)NC(=O)[C@H](C)NC(=O)[C@H](C)NC(=O)[C@H](CC(=O)O)NC(=O)[C@H](CC(=O)O)NC3=O)NC1=O)CCCN2C(C)=O (stereo partly shown) [I-572]"
  cat: "class 1"
- compound: "CC[C@H](C)[C@@H]1NC(=O)[C@H](CC(=O)O)NC(=O)[C@]2(CC=CCCCC3(CCCC=CCCCCCC[C@@](C)(C(=O)N[C@@H](Cc4ccsc4)C(=O)N[C@@H](Cc4csc5ccccc45)C(=O)N[C@@H](CCC(N)=O)C(N)=O)NC(=O)[C@H](CC(N)=O)NC(=O)[C@H](Cc4ccccc4)NC(=O)[C@H](C)NC(=O)[C@H](C)NC(=O)[C@H](CCC(=O)O)NC(=O)[C@H](CC(=O)O)NC3=O)NC1=O)CCCN2C(C)=O (stereo partly shown) [I-521]"
  cat: "class 1"
- compound: "CC(=O)N1CCC[C@]12CC=CCCCC1(CCCC=CCCCCCC[C@@](C)(C(=O)N[C@@H](Cc3ccccc3)C(=O)N[C@@H](Cc3csc4ccccc34)C(=O)N(C)[C@@H](Cc3cnc[nH]3)C(N)=O)NC(=O)[C@H](CC(N)=O)NC(=O)[C@H](Cc3ccccc3)NC(=O)[C@H](C)NC(=O)[C@H](C)NC(=O)[C@H](CCC(=O)O)NC(=O)[C@H](CC(=O)O)NC1=O)NC(=O)[C@H](CC(C)C)NC(=O)[C@H](CC(=O)O)NC2=O (stereo partly shown)"
  cat: "class 0"
- compound: "CC(=O)N1CCC[C@]12CC=CCCCC1(CCCC=CCCCCCC[C@@](C)(C(=O)N[C@@H](Cc3ccccc3)C(=O)N[C@@H](Cc3csc4ccccc34)C(=O)N[C@@H](Cc3c[nH]cn3)C(N)=O)NC(=O)[C@H](CC(N)=O)NC(=O)[C@H](Cc3ccccc3)NC(=O)[C@H](C)NC(=O)[C@H](C)NC(=O)[C@H](CC(=O)O)NC(=O)[C@H](CC(=O)O)NC1=O)NC(=O)[C@H](C)NC(=O)[C@H](CC(=O)O)NC2=O (stereo partly shown) [I-465]"
  cat: "class 1"
- compound: "CC(=O)N1CCC[C@]12CC=CCCCC1(CCCC=CCCCCCC[C@@](C)(C(=O)N[C@@H](Cc3ccccc3)C(=O)N[C@@H](Cc3csc4ccccc34)C(=O)N[C@@H](Cc3c[nH]cn3)C(N)=O)NC(=O)[C@H](CC(N)=O)NC(=O)[C@H](Cc3ccccc3)NC(=O)[C@H](C)NC(=O)[C@H](C)NC(=O)[C@H](CC(=O)O)NC(=O)[C@H](CC(=O)O)NC1=O)NC(=O)[C@H](CC(C)C)NC(=O)[C@H](CC(=O)O)NC2=O (stereo partly shown) [I-565]"
  cat: "class 1"
- compound: "CC[C@H](C)[C@@H]1NC(=O)[C@H](CC(=O)O)NC(=O)[C@]2(CC=CCCCC3(CCCC=CCCCCCC[C@@](C)(C(=O)N[C@@H](Cc4ccsc4)C(=O)N[C@@H](Cc4csc5ccccc45)C(=O)N[C@@H](CCC(N)=O)C(N)=O)NC(=O)[C@H](CC(N)=O)NC(=O)[C@H](Cc4ccccc4)NC(=O)[C@H](C)NC(=O)[C@H](C)NC(=O)[C@H](CCC(=O)O)NC(=O)[C@H](CC(=O)O)NC3=O)NC1=O)CCCN2C(C)=O (stereo partly shown) [I-520]"
  cat: "class 1"
- compound: "CC[C@H](C)[C@@H]1NC(=O)[C@H](CC(=O)O)NC(=O)[C@]2(CC=CCCCC3(CCCC=CCCCCCC[C@@](C)(C(=O)N[C@@H](Cc4ccccc4)C(=O)N[C@@H](Cc4csc5ccccc45)C(=O)N[C@@H](CCC(N)=O)C(N)=O)NC(=O)[C@H](CCC(N)=O)NC(=O)[C@H](Cc4ccccc4)NC(=O)[C@H](C)NC(=O)[C@H](CC(C)C)NC(=O)[C@H](CCC(=O)O)NC(=O)[C@H](CC(=O)O)NC3=O)NC1=O)CCCN2C(C)=O (stereo partly shown) [I-647]"
  cat: "class 0"
